Provenance of the data: paper PMC11891452

Subject Of Test: β‐glucuronidase (Escherichia coli, UniProt P05804)
Construct: purchased Sigma (USA)
Sequence (P05804 whole entry): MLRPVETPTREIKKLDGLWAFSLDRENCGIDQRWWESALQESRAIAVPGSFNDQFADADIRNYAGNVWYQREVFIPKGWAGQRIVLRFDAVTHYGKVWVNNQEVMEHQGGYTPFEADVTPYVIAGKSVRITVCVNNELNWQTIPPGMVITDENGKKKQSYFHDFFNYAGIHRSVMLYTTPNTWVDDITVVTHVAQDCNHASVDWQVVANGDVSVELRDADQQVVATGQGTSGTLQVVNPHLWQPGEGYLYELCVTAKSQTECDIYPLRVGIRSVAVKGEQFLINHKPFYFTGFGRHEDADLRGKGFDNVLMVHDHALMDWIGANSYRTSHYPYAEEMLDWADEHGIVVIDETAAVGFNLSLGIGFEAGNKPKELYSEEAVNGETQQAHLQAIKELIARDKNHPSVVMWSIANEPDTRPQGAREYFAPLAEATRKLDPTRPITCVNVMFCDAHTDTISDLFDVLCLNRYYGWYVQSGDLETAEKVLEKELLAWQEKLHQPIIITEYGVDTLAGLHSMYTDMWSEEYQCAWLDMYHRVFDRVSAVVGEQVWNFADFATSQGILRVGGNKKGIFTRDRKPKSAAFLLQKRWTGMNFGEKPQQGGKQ
Assay Summary: in vitro β‐glucuronidase inhibition assay with PNPG as substrate
Assay type: biochemical
Condition Parameters: inhibitor 10 μM; PNPG 250 μM; pH 7.4; 37 °C, 30 min; mean±SD; read-out: Inhibition rate 10 μM (%)
Please respond with reported inhibition at 10 µM for every item in the list.
One number for each entry, in %.

Example cases with answers are listed next.
Molecule	Subject Of Test	Unit Spec	inhibition at 10 µM
COc1cc(-c2cc(=O)c3c(O)cc(O)cc3o2)ccc1O	β‐glucuronidase (Escherichia coli, UniProt P05804)	%	88
COc1ccc(-c2oc3cc(O)cc(O)c3c(=O)c2O)cc1O	β‐glucuronidase (Escherichia coli, UniProt P05804)	%	80
O=C1C[C@@H](c2ccc(O)cc2)Oc2cc(O)cc(O)c21	β‐glucuronidase (Escherichia coli, UniProt P05804)	%	56
O=C(O[C@@H]1Cc2c(O)cc(O)cc2O[C@@H]1c1cc(O)c(O)c(O)c1)c1cc(O)c(O)c(O)c1 [EGCG, (−)‐Epigallocatechin gallate, reference compound]	β‐glucuronidase (Escherichia coli, UniProt P05804)	%	96.1
COc1cc(-c2oc3cc(O)cc(O)c3c(=O)c2O)ccc1O	β‐glucuronidase (Escherichia coli, UniProt P05804)	%	73.9

Consider the additional molecule presented here.
Summary for this molecule, O=c1c(O)c(-c2cc(O)c(O)c(O)c2)oc2cc(O)cc(O)c12 : inhibition at 10 µM is 92.6

----------
Subject Of Test: β‐glucuronidase (Escherichia coli)
pIC50: −log10 of the molar value.
Respond with t for pIC50 values of 5 and above, f for values below.

Exam item: decide whether the reported pIC50 for COc1ccc(-c2oc3cc(O)cc(O)c3c(=O)c2O)cc1O [tamarixetin] is at least 5. f

Exam item: decide whether the reported pIC50 for O=C1C[C@@H](c2ccc(O)cc2)Oc2cc(O)cc(O)c21 [naringenin] is at least 5. f

Exam item: decide whether the reported pIC50 for COc1cc(-c2oc3cc(O)cc(O)c3c(=O)c2O)ccc1O [isorhamnetin] is at least 5. f

Exam item: decide whether the reported pIC50 for O=C(O[C@@H]1Cc2c(O)cc(O)cc2O[C@@H]1c1cc(O)c(O)c(O)c1)c1cc(O)c(O)c(O)c1 [EGCG, (−)‐Epigallocatechin gallate, reference compound] is at least 5. t

Exam item: decide whether the reported pIC50 for O=c1c(O)c(-c2cc(O)c(O)c(O)c2)oc2cc(O)cc(O)c12 [myricetin] is at least 5. t

----------
Subject Of Test: β‐glucuronidase (Escherichia coli, UniProt P05804)
Construct: purchased Sigma (USA)
Assay Summary: inhibition kinetics (Michaelis‐Menten, Lineweaver‐Burk and slope plots) of PNPG hydrolysis
Format: biochemical
Condition Parameters: PNPG 200-1000 μM; from slope plots of Lineweaver‐Burk plots
Assay Endpoint: Ki (nM)
One number for each entry, in nM.

For each of the compounds below, note its Ki.
1. O=c1c(O)c(-c2cc(O)c(O)c(O)c2)oc2cc(O)cc(O)c12
2. O=C(O[C@@H]1Cc2c(O)cc(O)cc2O[C@@H]1c1cc(O)c(O)c(O)c1)c1cc(O)c(O)c(O)c1 [EGCG, (−)‐Epigallocatechin gallate, reference compound]

1: 3070; 2: 1420
